pIC50: −log10 of the molar value.
Collected from the literature: pIC50 of various compounds toward UniProt P49841.

// known answers, use as guide
# COMPOUND, pIC50
records = [
    ("CCC1(c2cccc(-c3cc(C)ncc3F)c2)C2=C(CC(C)(C)NC2=O)NC2N=NC(C(F)(F)F)=C21 (centres undefined)", "> 7.00"),
    ("CCC1(c2cccc(S(C)(=O)=O)c2)C2=CN=NC2NC2=C1C(=O)CC(C)(C)C2 (centres undefined)", "> 7.00"),
    ("CC[C@]1(c2cccc(-c3cn(C)nc3C(F)(F)F)c2)C2=CN=NC2NC2=C1C(=O)NC(C)(C)C2 (some centres undefined)", "6.00 to 7.00"),
    ("CCC1(c2cccc(C(C)C)c2)C2=C(CC(C)(C)NC2=O)NC2N=NC(C)=C21 (centres undefined)", "> 7.00"),
    ("CC[C@]1(c2cccc(-c3cnn(C)c3C)c2)C2=CN=NC2NC2=C1C(=O)NC(C)(C)C2 (some centres undefined)", "< 5.30"),
    ("CCC1(c2cccc(-c3ccncc3F)c2)C2=C(CC(C)(C)NC2=O)NC2N=NC(C)=C21 (centres undefined)", "> 7.00"),
    ("CC1(C)CC(=O)C2=C(C1)NC1N=NC=C1C21CCCN(S(=O)(=O)Cc2ccccc2)CC1 (centres undefined)", "6.00 to 7.00"),
    ("CCC1(c2cccc(Oc3ncccn3)c2)C2=CN=NC2NC2=C1C(=O)CC(C)(C)C2 (centres undefined)", "> 7.00"),
    ("CCC1(c2cccc(C(F)F)c2)C2=CN=NC2NC2=C1C(=O)CC(C)(C)C2 (centres undefined)", "> 7.00"),
    ("CCC1(c2cccc(C3=CN=NC3)c2)C2=C(CC(C)(C)CC2=O)NC2N=NC(C)=C21 (centres undefined)", "> 7.00"),
]

Could you share what pIC50 was measured for O=c1oc2cccnc2n1Cc1cn(-c2cccnc2)nn1 , tested on UniProt P49841? 6.64

Could you share what pIC50 was measured for COc1cccc(-c2n[nH]c3c(N=NCc4ccncc4)ncnc23)c1 , tested on UniProt P49841? 8.30

Could you share what pIC50 was measured for CCC1(c2cccc(C(F)(F)F)c2)C2=CN=NC2NC2=C1C(=O)N(c1cscn1)CC2 (centres undefined) , tested on UniProt P49841? 6.00 to 7.00

Could you share what pIC50 was measured for CN1C[C@@]2(C3=C(CC(C)(C)CC3=O)NC3N=NC(CC(C)(C)C)=C32)c2ccccc21 (some centres undefined) , tested on UniProt P49841? 5.30 to 6.00

----------
Collected from the literature: pIC50 of various molecules toward Glycogen synthase kinase-3 beta (Homo sapiens).
pIC50: −log10 of the molar value.

// known answers, use as guide
# MOLECULE, RECORDED_RESULT
measured = [
    ("CC[C@]1(c2cccc(C3=CN=NC3)c2)C2=C(CC(C)(C)NC2=O)NC2N=NC(C(F)(F)F)=C21 (stereo partly specified)", "> 7.00"),
    ("CCC1(c2cccc(C(C)(C)F)c2)C2=CN=NC2NC2=C1C(=O)N(C)CC2 (stereo unspecified)", "5.30 to 6.00"),
    ("CC1(C)CC(=O)C2=C(C1)NC1=C(CN=N1)C21CCN(S(=O)(=O)c2ccc(C(F)(F)F)cn2)CC1", "> 7.00"),
]

Could you share what pIC50 was measured for CCc1ccc(-n2cc(Cn3c(=O)oc4cccnc43)nn2)cc1 , tested on Glycogen synthase kinase-3 beta (Homo sapiens)? 4.90

Could you share what pIC50 was measured for CCC1(c2cccc(C(F)(F)F)c2)C2=CN=NC2NC2=C1C(=O)CC(C)(C)C2 (stereo unspecified) , tested on Glycogen synthase kinase-3 beta (Homo sapiens)? > 7.00

Could you share what pIC50 was measured for CC[C@]1(c2cccc(-c3ccncc3OC3CC3)c2)C2=CN=NC2NC2=C1C(=O)NC(C)(C)C2 (stereo partly specified) , tested on Glycogen synthase kinase-3 beta (Homo sapiens)? < 5.30

Could you share what pIC50 was measured for CCC(=O)Oc1ccc(-c2csc3c2-n2cccc2C3=O)cc1OC(=O)CC , tested on Glycogen synthase kinase-3 beta (Homo sapiens)? < 4.30

Could you share what pIC50 was measured for O=c1oc2cccnc2n1Cc1cn(-c2cccc([N+](=O)[O-])c2)nn1 , tested on Glycogen synthase kinase-3 beta (Homo sapiens)? 4.81

Could you share what pIC50 was measured for CC[C@]1(c2cccc(-c3cnn(C(C)(C)C)c3)c2)C2=CN=NC2NC2=C1C(=O)NC(C)(C)C2 (stereo partly specified) , tested on Glycogen synthase kinase-3 beta (Homo sapiens)? < 5.30

Could you share what pIC50 was measured for CC[C@]1(c2cccc(-c3cnn(C)c3C#N)c2)C2=CN=NC2NC2=C1C(=O)NC(C)(C)C2 (stereo partly specified) , tested on Glycogen synthase kinase-3 beta (Homo sapiens)? < 5.30

Could you share what pIC50 was measured for CC[C@]1(c2cc(N(C)C(C)=O)ccc2F)C2=C(CC(C)(C)CC2=O)NC2N=NC(C)=C21 (stereo partly specified) , tested on Glycogen synthase kinase-3 beta (Homo sapiens)? < 5.30

Could you share what pIC50 was measured for CC1(C)CC(=O)C2=C(C1)NC1N=NC=C1C21CCN(S(=O)(=O)c2cnc3n2CCC3)CC1 (stereo unspecified) , tested on Glycogen synthase kinase-3 beta (Homo sapiens)? 6.00 to 7.00

Could you share what pIC50 was measured for Cc1ccc(C(=O)N2CC3(C2)CC2(CO3)C3=C(N=NC3)NC3=C2C(=O)CC(C)(C)C3)c(C)c1 (stereo unspecified) , tested on Glycogen synthase kinase-3 beta (Homo sapiens)? 6.00 to 7.00

Could you share what pIC50 was measured for CC[C@]1(c2cccc(-c3cnnn3C)c2)C2=CN=NC2NC2=C1C(=O)CC(C)(C)C2 (stereo partly specified) , tested on Glycogen synthase kinase-3 beta (Homo sapiens)? 5.30 to 6.00

Could you share what pIC50 was measured for CC[C@]1(c2cccc(C3=C4CC=C(C)N=C4N=CC3)c2)C2=CN=NC2NC2=C1C(=O)NC(C)(C)C2 (stereo partly specified) , tested on Glycogen synthase kinase-3 beta (Homo sapiens)? < 5.30

Could you share what pIC50 was measured for Cc1cccc(S(=O)(=O)N2CC[C@@]3(C2)C2=C(N=NC2)NC2=C3C(=O)CC(C)(C)C2)c1 , tested on Glycogen synthase kinase-3 beta (Homo sapiens)? > 7.00

Could you share what pIC50 was measured for CC1(C)CC(=O)C2=C(C1)NC1=C(CN=N1)C21CCC(S(C)(=O)=O)CC1 (stereo unspecified) , tested on Glycogen synthase kinase-3 beta (Homo sapiens)? > 7.00

----------
pIC50: −log10 of the molar value.
Collected from the literature: pIC50 of various compounds toward Glycogen synthase kinase-3 beta (Homo sapiens).

Any idea what pIC50 was measured for CCC1(c2cccc(C(F)(F)F)c2)C2=CN=NC2NC2=C1C(=O)N(c1ccsc1)CC2 (configuration not stated) ? 6.00 to 7.00

Any idea what pIC50 was measured for CCC1(c2cccc(-c3cnn4c3CCC4)c2)C2=CN=NC2NC2=C1C(=O)CC(C)(C)C2 (configuration not stated) ? 6.00 to 7.00

Any idea what pIC50 was measured for CC[C@]1(c2cccc(Oc3cncnc3)c2)C2=CN=NC2NC2=C1C(=O)CC(C)(C)C2 (some centres not stated) ? > 7.00

Any idea what pIC50 was measured for COc1ccc(-c2csc3c2-n2cccc2C3=O)cc1O ? 5.82

Any idea what pIC50 was measured for CC1(C)CC(=O)C2=C(C1)NC1N=NC(CCC(F)(F)F)=C1C21CCc2c(F)cccc21 (configuration not stated) ? 6.00 to 7.00

Any idea what pIC50 was measured for Cn1ccc(S(=O)(=O)N2CC[C@]3(C2)C2=C(N=NC2)NC2=C3C(=O)CC(C)(C)C2)n1 ? > 7.00

Any idea what pIC50 was measured for O=c1oc2cccnc2n1Cc1cn(-c2cccc(Cl)c2)nn1 ? 4.55

Any idea what pIC50 was measured for CC[C@@]1(c2cccc(Oc3ncccn3)c2)C2=CN=NC2NC2=C1C(=O)CC(C)(C)C2 (some centres not stated) ? 6.00 to 7.00

Any idea what pIC50 was measured for CC[C@H]1CCN1c1cccc([C@]2(CC)C3=CN=NC3NC3=C2C(=O)CC(C)(C)C3)c1 (some centres not stated) ? < 5.30

Any idea what pIC50 was measured for CC1(C)CC(=O)C2=C(C1)NC1=C(CN=N1)C21CCCC1 ? > 7.00

Any idea what pIC50 was measured for CC[C@]1(c2cccc(Cc3ncccn3)c2)C2=CN=NC2NC2=C1C(=O)CC(C)(C)C2 (some centres not stated) ? > 7.00

Any idea what pIC50 was measured for CCC1(c2cccc(C(F)(F)F)c2)C2=CN=NC2NC2=C1C(=O)N(c1nn(C)cc1C)CC2 (configuration not stated) ? 5.30 to 6.00

Any idea what pIC50 was measured for CC[C@]1(c2cccc(-c3ccncc3F)c2)C2=CN=NC2NC2=C1C(=O)CC(C)(C)C2 (some centres not stated) ? 6.00 to 7.00

Any idea what pIC50 was measured for CC1(C)CC(=O)C2=C(C1)NC1=C(CN=N1)[C@@]21CCOC2(CCCC2)C1 ? 5.30 to 6.00

Any idea what pIC50 was measured for CC[C@@]1(c2cccc(S(=O)(=O)CCOC)c2)C2=CN=NC2NC2=C1C(=O)CC(C)(C)C2 (some centres not stated) ? < 5.30

Any idea what pIC50 was measured for CC1(C)CC(=O)C2=C(C1)NC1=C(CN=N1)C21CCN(S(=O)(=O)c2cccc3ccncc23)CC1 ? > 7.00

Any idea what pIC50 was measured for CC[C@@]1(c2cccc(-c3cn(C)nc3C)c2)C2=C(N=NC2)NC2=C1C(=O)C(C)(C)C2 ? 6.00 to 7.00
